Hey, just so you know, these numbers are from ChEMBL document CHEMBL3988442.

Consider the following molecules; for each one, report its Percent Effect.
# Tested on: Mycobacterium tuberculosis
# run description: Cornell - Phenotypic assay to identify agents that inhibit growth of Mycobacterium tuberculosis
# Assay type: functional
# Parameters: scale not given: direction of the effect not stated beside the values
# condition: 10 mM as filed; unlikely as a test dose
The campaign covered roughly 53,000 compounds. About 900 (1.7%) showed an effect of 50% or more. Only a selection was taken, and strong results are over-represented in it overall.
Give bare numbers, in %.

Answered examples (5):
* COCCn1cncc1CN1CCCC(C)(c2ccccc2)C1 (centres undefined) | 16.9
* CCc1onc(C)c1C(=O)N1CCC(c2cc3ncccc3cn2)CC1 | -10.62
* Fc1cc(F)cc(CN2CCC(c3cc4ncccc4cn3)CC2)c1 | 48.17
* Cc1nn2c(=O)/c(=C\c3cccs3)sc2nc1=O | 10.56
* CCc1cc(C(=O)N2CCC(c3cc4ncccc4cn3)CC2)no1 | -43.86

The following molecules each have a reported value; give each one's Percent Effect.
1. CCN1CCCC1CNC(=O)Cc1c(C)n[nH]c1-c1ccc(OC)cc1 (centres undefined)
2. COc1ccc(CN(C)C(=O)NCc2c(C)cc(C)nc2OC)cc1
3. CN(C)S(=O)(=O)c1ccc(-c2nc(C#N)c(NC(C)(C)C)o2)o1.Cl
4. CC(C)Nc1oc(-c2ccc(S(=O)(=O)N(C)C)o2)nc1C#N

## Result
[17.71, -10.68, 104.3, -45.52]

The following molecules each have a reported value; give each one's Percent Effect.
1. COc1ccc(C)cc1CN1CCC(c2cc3ncccc3cn2)CC1.Cl
2. CNc1oc(-c2ccc(S(=O)(=O)N(C)C)o2)nc1C#N
3. O=C(c1cnc(-c2cccnc2)nc1)N1CCSCC1
4. Fc1cccc(CN2CCC(c3n[nH]c4ncccc34)CC2)c1F
5. O=C(N1CCOCC1)N1CCc2ncc(CN3CCCCC3)n2CC1.O=C(O)C(F)(F)F
6. CC1(c2ccccc2)CCCN(Cc2cncn2C2CC2)C1 (centres undefined)
7. CCC(C)N(Cc1cnc(OC)nc1)Cc1ccsc1 (centres undefined)
8. COc1ccc2c(c1)OCC(Cc1cc(C(=O)N3CCCC3)ccn1)C2 (centres undefined)

## Result
102.1
17.81
-5.308
12.02
15.78
-6.001
-2.85
3.952

The following molecules each have a reported value; give each one's Percent Effect.
1. CC(C)Nc1ncnc2c1CCN(C(=O)c1ccncc1F)CC2.O=C(O)C(F)(F)F
2. CC1(C)OC(=O)N(CCOc2ccc(F)cc2)C1=O
3. Fc1cccc(CN2CCC(c3noc(-c4ccccn4)n3)CC2)c1F
4. Fc1ccc(F)c(CN2CCC(c3cnccn3)CC2)c1

## Result
[-9.598, 15.77, 10.24, -8.862]

The following molecules each have a reported value; give each one's Percent Effect.
1. Cc1nc(N2CCOCC2)nc2c1CCN(C(=O)C1CCCCC1)CC2
2. Cc1cccnc1NCCNC(=O)c1cnc(-c2cccs2)nc1O
3. CC1(c2ccccc2)CCCN(Cc2cncn2C2CCCC2)C1 (centres undefined)

## Result
1. 34.6
2. 19.3
3. 105.1

* * *

Consider the following compounds; for each one, report its Percent Effect.
# System: Mycobacterium tuberculosis
# run description: Cornell - Phenotypic assay to identify agents that inhibit growth of Mycobacterium tuberculosis
# Type: functional
# Parameters: scale not given: direction of the effect not stated beside the values
# condition: 10 mM as filed; unlikely as a test dose
In all, about 53,000 compounds went through this assay and about 900 (1.7%) showed an effect of 50% or more. Only a selection was taken, and strong results are over-represented in it overall.
Give bare numbers, in %.

The following compounds each have a reported value; give each one's Percent Effect.
1. Cn1cc(S(=O)(=O)Nc2c(F)cccc2N2CCCC2)cn1
2. O=C(Cn1cc(Cl)cn1)NCCN1CCC(O)(c2ccc(F)cc2)CC1
3. CC(C)C(NC(=O)c1nc(N2CCOCC2)ncc1Cl)c1cccs1 (stereo not drawn)
4. CN1CC2(CCCN(CCOCc3ccccc3)C2)OC1=O (stereo not drawn)

## Result
[-1.726, 36.23, 19.79, 17.75]

The following compounds each have a reported value; give each one's Percent Effect.
1. Nc1ncc(-c2ccc(Cl)cc2)c(C2CCCNC2)n1 (stereo not drawn)
2. CCc1ccc(NC(C(N)=O)c2ccc(F)cc2)cc1 (stereo not drawn)
3. CC(C)C(Sc1nnnn1C1CC1)C(=O)NCc1ccccc1 (stereo not drawn)
4. CCC(CN1CCCC1)NC(=O)C1(c2ccc(F)cc2)CC1 (stereo not drawn)
5. Cc1nnc2n1CCN(C(=O)c1cc(C)n(-c3ccccc3)c1C)C2
6. Cc1nc(C2CCCN2CC(=O)Nc2cc(C(C)(C)C)nn2C)no1 (stereo not drawn)
7. CNC(=O)c1cn[nH]c1C1CCN(Cc2cn(C)nc2C)C1 (stereo not drawn)

## Result
-8.441
17.32
-5.783
38.36
-35.93
-17.86
-22.18

The following compounds each have a reported value; give each one's Percent Effect.
1. Cc1ncc(CN2CCC(c3nc(O)cc(-c4ccsc4)n3)CC2)cn1
2. Cc1nc(CN2CCO[C@@H]3CN(Cc4ccsc4)C[C@@H]3C2)cs1.O=C(O)C(F)(F)F.O=C(O)C(F)(F)F
3. CCCC(NC(=O)c1occc1C)c1nnn[nH]1 (stereo not drawn)
4. O=C(O)C(F)(F)F.O=C(O)C(F)(F)F.O=C(c1cccnc1)N1CCC[C@]2(C[C@H](Oc3ncccc3F)CO2)C1
5. CCC(=O)N1CCCCC[C@@H]2[C@@H]1[C@H](c1cccc(F)c1)CN2C
6. CC(C)C(NC(=O)c1ccc(N2CCOCC2)nc1)c1cccs1 (stereo not drawn)

## Result
21.36
22.49
-83.42
-30.18
-24.01
5.892

The following compounds each have a reported value; give each one's Percent Effect.
1. CC(C)(C)CNC(=O)c1ccc(C(=O)O)nc1
2. CC(C)c1ncc(CN2CCOC(C(=O)Nc3ccccc3)C2)cn1 (stereo not drawn)
3. CCC(C)(C)NC(=O)c1nnn(-c2cccc3c2CCN(C)C3)c1C

## Result
1. 11.56
2. -3.657
3. -0.0817

* * *

# Tested on: Mycobacterium tuberculosis
# run description: Cornell - Phenotypic assay to identify agents that inhibit growth of Mycobacterium tuberculosis
# Format: functional
# Parameters: scale not given: direction of the effect not stated beside the values
# condition: 10 mM as filed; unlikely as a test dose
The whole screen tested about 53,000 compounds, of which about 900 (1.7%) showed an effect of 50% or more. The full list was thinned out, with strong results kept by preference.
experimental readout: Percent Effect (%)
Answers are plain numbers, in %.

Answered examples (5):
• Cc1cnc(Nc2cccc(C3CCCN3Cc3cn(C)nc3C)n2)s1 (configuration not stated) = 23.5
• CCc1ccccc1NC(=O)c1cnn(C)c1C = 25.28
• CN1CCN(Cc2cccnc2)C(=O)C12CCN(Cc1ccco1)CC2.O=C(O)C(F)(F)F.O=C(O)C(F)(F)F.O=C(O)C(F)(F)F = 15.2
• CCn1ncc2c1CCCC2NCc1cccc2c1OCO2 (configuration not stated) = -8.826
• CCc1ccc(CN(Cc2ccccc2)CC(C)CO)nc1 (configuration not stated) = 46.77

The following compounds each have a reported value; give each one's Percent Effect.
1. COc1ccc2c(c1)C1(CCN(Cc3nccs3)CC1)N(C)CC2.O=C(O)C(F)(F)F.O=C(O)C(F)(F)F
2. O=C(O)C(F)(F)F.O=C(O)C(F)(F)F.c1csc(CN2CCC3(CC2)CCN(CC2CC2)CC3)n1
3. CC(C)N1CCC(CNCc2c[nH]nc2C(C)(C)C)C1 (configuration not stated)
4. COc1ccc(OC(F)F)c(NCC(=O)NCC(=O)N2CCCC2)c1
5. CCN1CCC(CNCc2c[nH]nc2C(C)(C)C)C1.Cl (configuration not stated)

## Result
[-9.444, -43.47, 7.799, 14.52, 10.08]

The following compounds each have a reported value; give each one's Percent Effect.
1. Clc1cccc(-c2cccc(N3CCC(NC4CCOCC4)CC3)c2)c1
2. O=C(O)C(F)(F)F.O=C(O)C(F)(F)F.c1cncc(-c2ccc3c(c2)CCC32CCN(Cc3ccco3)CC2)c1
3. COc1cccc2c3c(c(=O)n(C)c12)CCC(C)(C)O3
4. CCn1c(CN(C)Cc2cnc(C)s2)nc2c(F)cccc21
5. Cc1ccccc1CN1CCCC1c1cccc(Nc2nccs2)n1 (configuration not stated)
6. Cn1c(=O)c2c(c3ccccc31)OC(C)(C)CC2
7. Cc1nn(C)c(Cl)c1CNCc1cccnc1N1CCCCC1.Cl

## Result
72.63
82.31
52.61
21.09
44.82
17.08
10.36

The following compounds each have a reported value; give each one's Percent Effect.
1. COc1cccc2c3c(c(=O)[nH]c12)CCC(C)(C)O3
2. O=C(NCc1ccc(Br)cc1)C1(O)CCSCC1
3. CN1CCC(c2cc(CCO)ncn2)C1 (configuration not stated)

## Result
[14.12, 26.99, -9.182]

The following compounds each have a reported value; give each one's Percent Effect.
1. COc1cccc(-c2cccc(N3CCC(N[C@@H]4CCOC4)CC3)c2)c1
2. O=C(O)C(F)(F)F.O=C(O)C(F)(F)F.c1cncc(-c2ccc3c(c2)CCC32CCN(Cc3nccs3)CC2)c1

## Result
39.62
61.89
